The reported measurements were obtained from ChEMBL document CHEMBL3124843.

- Test system: HL-60
- testSummary: Antiproliferative activity against human HL60 cells after 72 hrs by XTT assay
- Type: functional, cell-based
- protocolConditions: HL-60, 72 h

{"entrySmiles": "CN(C)c1ncnc2c1c(I)cn2[C@@H]1O[C@H](CO)[C@@H](O)[C@H]1O", "qual": "=", "IC50, nM": 50}
{"entrySmiles": "CNc1ncnc2c1c(-c1ccco1)cn2[C@@H]1O[C@H](CO)[C@@H](O)[C@H]1O", "qual": "=", "IC50, nM": 620}
{"entrySmiles": "Cc1ncnc2c1c(-c1cc3ccccc3o1)cn2[C@@H]1O[C@H](CO)[C@@H](O)[C@H]1O", "qual": ">", "IC50, nM": 20000}
{"entrySmiles": "COc1ncnc2c1c(-c1ccco1)cn2[C@@H]1O[C@H](CO)[C@@H](O)[C@H]1O", "qual": "=", "IC50, nM": 100}
{"entrySmiles": "COc1ncnc2c1c(-c1ccoc1)cn2[C@@H]1O[C@H](CO)[C@@H](O)[C@H]1O", "qual": "=", "IC50, nM": 150}
{"entrySmiles": "CNc1ncnc2c1c(I)cn2[C@@H]1O[C@H](CO)[C@@H](O)[C@H]1O", "qual": ">", "IC50, nM": 20000}
